Documented Ki across a set of compounds
# system under test: cloned human m1 muscarinic receptor (Homo sapiens, UniProt P11229)
# Construct: expressed in transfected cells; host or cells: CHO cells, stably transfected (membranes)
# Sequence (P11229 whole entry): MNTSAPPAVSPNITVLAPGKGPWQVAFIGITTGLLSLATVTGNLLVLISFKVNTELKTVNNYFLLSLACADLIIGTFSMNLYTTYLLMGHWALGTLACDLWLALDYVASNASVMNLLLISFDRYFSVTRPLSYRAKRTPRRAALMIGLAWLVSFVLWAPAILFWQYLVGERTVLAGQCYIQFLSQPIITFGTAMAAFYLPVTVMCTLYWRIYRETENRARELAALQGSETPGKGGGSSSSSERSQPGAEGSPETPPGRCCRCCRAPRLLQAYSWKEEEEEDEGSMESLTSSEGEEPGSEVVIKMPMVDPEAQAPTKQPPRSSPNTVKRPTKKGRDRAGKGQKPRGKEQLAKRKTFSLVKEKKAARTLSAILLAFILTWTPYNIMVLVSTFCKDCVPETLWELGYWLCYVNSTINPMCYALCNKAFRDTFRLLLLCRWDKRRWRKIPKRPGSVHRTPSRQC
# test method notes: Muscarinic binding activity: inhibition of 3H-QNB binding, m1
measured attribute: Ki (nM)

1) C=CCN(c1ccc(S(=O)(=O)c2ccc(OC)cc2)cc1)C1CCN(C2CCCCC2)CC1 ... 47.1
2) COc1ccc(S(=O)(=O)c2ccc(N(C)C3CCN(C4CCCCC4)CC3)cc2)cc1 ... 285

----------
The following compounds are shown together with reported Ki values.
# system under test: cloned human m1 muscarinic receptor (Homo sapiens, UniProt P11229)
# Construct: expressed in transfected cells; host or cells: CHO cells, stably transfected (membranes)
# test method notes: Muscarinic binding activity: inhibition of 3H-QNB binding, m1
# measurement parameters: 3H-QNB binding, membranes of transfected CHO cells, 25° C., 90 minutes, pH 7.4; read-out: Ki, m1
measured attribute: Ki

1. CC(=O)Nc1ccc([S+]([O-])c2ccc(N(C#N)C3CCN(C4CCCCC4)CC3)cc2)cc1 (stereo not shown) [Example 2AM] ... 212 nM
2. COc1ccc([S+]([O-])c2ccc(N(C#N)C3CCN(C4CCCCC4)CC3)cc2)cc1 (stereo not shown) [Example 2E] ... 189 nM
3. N#CN(c1ccc(S(=O)(=O)c2ccc3c(c2)OCO3)cc1)C1CCN(C2CCCCC2)CC1 [Example 2AC] ... 10 nM
4. N#CN(c1ccc(S(=O)(=O)C2CCCCC2)cc1)C1CCN(C2CCCCC2)CC1 [Example 2AK] ... 232 nM
